compounds and their reported C50
species on record: Bos taurus; experiment: Displacement of ethidium from calf thymus DNA by fluorimetric method
EXPERIMENTAL_ENDPOINT: C50 (µM)

{"SAMPLE_SMILES": "CC[n+]1ccc(Nc2ccc(NC(=O)c3ccc(Nc4cc(C)[n+](CC)c5ccc(N)cc45)cc3N)cc2)cc1.[I-].[I-]", "TEST_VALUE": 0.5}
{"SAMPLE_SMILES": "C[n+]1ccc(Nc2ccc(NC(=O)/C=C/c3ccc(C(=O)Nc4ccc(Nc5cc[n+](C)cc5)c(N)c4)cc3)cc2N)cc1.Cc1ccc(S(=O)(=O)[O-])cc1.Cc1ccc(S(=O)(=O)[O-])cc1", "TEST_VALUE": 1.5}
{"SAMPLE_SMILES": "Br.C/C(=N\\NC(=N)N)c1ccc(NC(=O)c2ccc(Nc3cc[n+](C)c4ccccc34)cc2)cc1.[Br-]", "TEST_VALUE": 0.78}
{"SAMPLE_SMILES": "C[n+]1ccc(Nc2ccc(C(=O)Nc3ccc(Nc4cc[n+](C)c5ccccc45)cc3N)cc2)cc1.[Br-].[Br-]", "TEST_VALUE": 1.87}
{"SAMPLE_SMILES": "C[n+]1cc(-c2ccc(NC(=O)c3ccc(Nc4cc[n+](C)c5ccc(N)cc45)cc3N)cc2)c(N)nc1N.Cc1ccc(S(=O)(=O)[O-])cc1.Cc1ccc(S(=O)(=O)[O-])cc1", "TEST_VALUE": 0.62}
{"SAMPLE_SMILES": "C[n+]1cccc(NC(=O)c2ccc(NC(=O)c3ccc(C(=O)Nc4ccc(-c5ccc(-c6ccc(-c7ccc[n+](C)c7)cc6)cc5)cc4)cc3)cc2)c1.Cc1ccc(S(=O)(=O)[O-])cc1.Cc1ccc(S(=O)(=O)[O-])cc1", "TEST_VALUE": 0.63}

----------
test: Displacement of ethidium from poly[d(A-T)]-poly[d(A-T)] DNA by fluorimetric method
EXPERIMENTAL_ENDPOINT: C50

{"SAMPLE_SMILES": "C[n+]1ccc(Nc2ccc(NC(=O)CCCCCCC(=O)Nc3ccc(Nc4cc[n+](C)cc4)cc3)cc2)cc1.[Br-].[Br-]", "TEST_VALUE": "20 µM"}
{"SAMPLE_SMILES": "C[n+]1cccc2cc(NC(=O)c3ccc(NC(=O)c4ccc(C(=O)Nc5ccc6c(ccc[n+]6C)c5)cc4)cc3)ccc21.Cc1ccc(S(=O)(=O)[O-])cc1.Cc1ccc(S(=O)(=O)[O-])cc1", "TEST_VALUE": "0.28 µM"}
{"SAMPLE_SMILES": "C/C(=N\\NC(=N)N)c1ccc(NC(=O)c2ccc(Nc3cc[n+](C)c4cc(N)ccc34)cc2)cc1.Cc1ccc(S(=O)(=O)O)cc1.Cc1ccc(S(=O)(=O)[O-])cc1", "TEST_VALUE": "0.19 µM"}
{"SAMPLE_SMILES": "C[n+]1cccc(NC(=O)c2ccc(NC(=O)c3ccc(C(=O)Nc4ccc(C(=O)Nc5ccc[n+](C)c5)cc4)c(N)c3)cc2)c1.Cc1ccc(S(=O)(=O)[O-])cc1.Cc1ccc(S(=O)(=O)[O-])cc1", "TEST_VALUE": "0.37 µM"}
{"SAMPLE_SMILES": "C[n+]1cccc2ccc(NC(=O)c3ccc(-c4ccc(-c5ccc(-c6ccc(C(=O)Nc7ccc8ccc[n+](C)c8c7)cc6)cc5)cc4)cc3)cc21.Cc1ccc(S(=O)(=O)[O-])cc1.Cc1ccc(S(=O)(=O)[O-])cc1", "TEST_VALUE": "0.14 µM"}
{"SAMPLE_SMILES": "Br.C/C(=N\\NC(=N)N)c1ccc(NC(=O)c2ccc(Nc3cc[n+](C)c4ccc(N)cc34)cc2N)cc1.[Br-]", "TEST_VALUE": "0.21 µM"}
